experimentalSystem: Protein kinase 7 (PK7), Plasmodium falciparum 3D7 (PF3D7_0213400) (UniProt Q7YTF7)
Sequence (Q7YTF7 1-343): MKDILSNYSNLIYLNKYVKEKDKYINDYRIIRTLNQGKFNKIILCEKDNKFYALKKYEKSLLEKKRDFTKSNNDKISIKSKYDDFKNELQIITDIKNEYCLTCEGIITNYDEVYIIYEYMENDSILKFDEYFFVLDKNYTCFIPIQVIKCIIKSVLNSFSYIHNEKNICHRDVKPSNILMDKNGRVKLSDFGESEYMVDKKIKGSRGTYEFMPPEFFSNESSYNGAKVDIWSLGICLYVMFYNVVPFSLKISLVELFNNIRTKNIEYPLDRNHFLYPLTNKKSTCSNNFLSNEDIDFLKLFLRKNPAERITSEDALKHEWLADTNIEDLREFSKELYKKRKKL
runDescription: inhibition of Plasmodium PK7 catalytic activity – biochemical, TCAMS antimalarial set, Kinase-Glo luminescence (AID 1159587)
conditionInfo: recombinant PfPK7, Kinase-Glo ATP depletion luminescence
Active and inactive are the calls of the source. The rule behind the calls is not given here.

# compound, experimentalSystem, outcome
rows = [
    ("COc1ccccc1C1CCN(C2CCC(NC(=O)/C=C/c3ccc(OC(F)(F)F)cc3)CC2)CC1 (stereo not given)", "Protein kinase 7 (PK7), Plasmodium falciparum 3D7 (PF3D7_0213400) (UniProt Q7YTF7)", "inactive"),
    ("COc1ccc(NC(=O)CCNc2cc(C)nc(NCc3cccc(C)c3)n2)cc1", "Protein kinase 7 (PK7), Plasmodium falciparum 3D7 (PF3D7_0213400) (UniProt Q7YTF7)", "inactive"),
    ("COc1cc(C)nc2ccc(NC(=O)c3ccc(C(=O)Nc4ccc5nc(C)cc(OC)c5c4)cc3)cc12", "Protein kinase 7 (PK7), Plasmodium falciparum 3D7 (PF3D7_0213400) (UniProt Q7YTF7)", "inactive"),
    ("OC(c1n[nH]c(=S)n1-c1ccccc1)C(O)c1n[nH]c(=S)n1-c1ccccc1 (stereo not given)", "Protein kinase 7 (PK7), Plasmodium falciparum 3D7 (PF3D7_0213400) (UniProt Q7YTF7)", "inactive"),
    ("Cc1cccc2[nH]c(-c3ccc(-c4cccc(CNCCCNS(C)(=O)=O)c4)s3)nc12", "Protein kinase 7 (PK7), Plasmodium falciparum 3D7 (PF3D7_0213400) (UniProt Q7YTF7)", "inactive"),
]
